Every entry's value here was drawn from patent US20240336909.

# EXPERIMENTAL TARGET: AxCT mask27 EGFR EH104 L056 version 1
Use 6% as the dividing line for Percent cleavage, with the line itself on the Y side and lower values as N.

PROTEIN	GROUP
MMP-12 (protein) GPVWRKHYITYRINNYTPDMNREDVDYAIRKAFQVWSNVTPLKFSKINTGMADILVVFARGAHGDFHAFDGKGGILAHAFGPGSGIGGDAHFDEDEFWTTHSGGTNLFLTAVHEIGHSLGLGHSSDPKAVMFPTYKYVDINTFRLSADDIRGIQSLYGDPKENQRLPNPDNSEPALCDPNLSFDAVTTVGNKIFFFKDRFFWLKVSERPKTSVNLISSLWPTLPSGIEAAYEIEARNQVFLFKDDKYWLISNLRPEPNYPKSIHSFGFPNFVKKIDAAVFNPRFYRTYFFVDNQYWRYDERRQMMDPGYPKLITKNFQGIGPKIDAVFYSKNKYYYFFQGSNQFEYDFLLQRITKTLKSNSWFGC	Y

Lookup: Please indicate if the recorded Percent cleavage for Cathepsin G (protein) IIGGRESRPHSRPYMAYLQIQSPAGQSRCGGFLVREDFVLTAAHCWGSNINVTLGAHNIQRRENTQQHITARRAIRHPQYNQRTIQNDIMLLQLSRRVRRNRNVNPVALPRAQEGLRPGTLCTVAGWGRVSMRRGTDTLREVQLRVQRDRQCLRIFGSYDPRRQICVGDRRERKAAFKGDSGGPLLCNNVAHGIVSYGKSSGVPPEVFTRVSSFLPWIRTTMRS meets or exceeds 6%.
Found: N

Lookup: Please indicate if the recorded Percent cleavage for Matriptase (protein) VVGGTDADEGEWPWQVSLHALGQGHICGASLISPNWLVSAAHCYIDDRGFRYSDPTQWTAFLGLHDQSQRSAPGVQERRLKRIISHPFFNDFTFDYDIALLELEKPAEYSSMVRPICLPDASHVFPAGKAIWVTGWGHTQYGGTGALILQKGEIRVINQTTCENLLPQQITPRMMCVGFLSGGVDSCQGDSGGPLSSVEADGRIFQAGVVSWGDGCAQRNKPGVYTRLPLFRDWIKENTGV meets or exceeds 6%.
Found: Y

Lookup: Please indicate if the recorded Percent cleavage for Neutrophil Elastase (protein) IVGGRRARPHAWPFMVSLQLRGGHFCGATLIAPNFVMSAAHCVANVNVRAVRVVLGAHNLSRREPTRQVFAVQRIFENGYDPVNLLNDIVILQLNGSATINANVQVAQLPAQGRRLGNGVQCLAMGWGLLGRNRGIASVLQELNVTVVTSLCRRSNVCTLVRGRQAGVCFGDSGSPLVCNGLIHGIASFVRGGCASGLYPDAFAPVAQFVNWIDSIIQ meets or exceeds 6%.
Found: Y
